Data provenance is patent US4322423A.

Answer each item with its documented ED50.
system: hypothermic effect caused by reserpine; test: reserpine-antagonism, elimination of the hypothermic effect caused by reserpine; format: in vivo; conditions: Mus musculus; mice, oral, 1 hr.; 17 hours after 2 mg/kg i.p. reserpine; read-out: Reserpine antagonism ED50 after 1 hr.
Give bare numbers, in mg/kg.

Example molecules with recorded ED50:
>>> print(df.to_string())
                                   molecule  reported_result
0  CN1Cc2sc(Br)cc2C(c2ccc(Br)cc2)C1 (centres unmarked)               55
1  Cc1ccc(C2CN(C)Cc3sc(Br)cc32)cc1.Cl (centres unmarked)               48
2  Cc1cc2c(s1)CN(C)CC2c1ccc(Br)cc1.Cl (centres unmarked)              1.7
3  CN1Cc2sc(Cl)cc2C(c2ccc(Cl)cc2)C1.Cl (centres unmarked)               16
4  CN1Cc2sc(Cl)cc2C(c2ccccc2)C1.Cl (centres unmarked)               13
5  CN1Cc2sc(Cl)cc2C(c2ccc(Br)cc2)C1.Cl (centres unmarked)               50

Please give ED50, item by item, for the list that follows.
1. Cc1ccc(C2CN(C)Cc3sc(Cl)cc32)cc1.Cl (centres unmarked)
2. Cc1cc2c(s1)CN(C)CC2c1ccccc1.Cl (centres unmarked)

Completion:
[44, 19]

---

test system: hypothermic effect caused by reserpine; assay: reserpine-antagonism, elimination of the hypothermic effect caused by reserpine; type: in vivo; settings: Mus musculus; mice, oral, 5 hrs.; 17 hours after 2 mg/kg i.p. reserpine; read-out: Reserpine antagonism ED50 after 5 hrs.
Property name: log10 of ED50 (log10 of the value in mg/kg)
Heads up: the numbers are on a log10 scale; they represent ED50 in mg/kg.

Example compounds with recorded log10 of ED50:
>>> print(df.to_string())
                                   compound  reported_result
0  CN1Cc2sc(Br)cc2C(c2ccc(Br)cc2)C1 (centres unmarked)             1.51
1  Cc1cc2c(s1)CN(C)CC2c1ccccc1.Cl (centres unmarked)             1.90
2  Cc1ccc(C2CN(C)Cc3sc(Cl)cc32)cc1.Cl (centres unmarked)             1.26
3  Cc1cc2c(s1)CN(C)CC2c1ccc(Br)cc1.Cl (centres unmarked)             0.66
4  CN1Cc2sc(Cl)cc2C(c2ccccc2)C1.Cl (centres unmarked)             1.95

Please give log10 of ED50, item by item, for the list that follows.
1. CN1Cc2sc(Cl)cc2C(c2ccc(Cl)cc2)C1.Cl (centres unmarked)
2. Cc1ccc(C2CN(C)Cc3sc(Br)cc32)cc1.Cl (centres unmarked)
3. CN1Cc2sc(Cl)cc2C(c2ccc(Br)cc2)C1.Cl (centres unmarked)

Completion:
[0.98, 1.90, 0.62]
